# RUN_DESCRIPTION: self-splicing fitness, log relative to wild type (ln ratio); higher = more splicing; Tetrahymena group I intron in knt gene, E. coli kanamycin selection, DiMSum; sequences stand for … in CUCUCU…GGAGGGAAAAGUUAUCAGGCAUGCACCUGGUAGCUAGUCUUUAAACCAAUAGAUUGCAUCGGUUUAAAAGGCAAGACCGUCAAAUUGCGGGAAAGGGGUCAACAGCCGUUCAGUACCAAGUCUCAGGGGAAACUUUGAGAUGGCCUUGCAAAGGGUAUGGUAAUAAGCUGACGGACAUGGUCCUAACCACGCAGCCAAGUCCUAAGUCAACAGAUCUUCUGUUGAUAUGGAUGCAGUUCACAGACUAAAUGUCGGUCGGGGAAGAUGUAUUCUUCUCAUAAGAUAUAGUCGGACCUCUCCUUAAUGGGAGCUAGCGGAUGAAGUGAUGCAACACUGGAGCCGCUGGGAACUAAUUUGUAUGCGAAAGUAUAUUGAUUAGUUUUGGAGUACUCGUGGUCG;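 also: selection with 25 µg/mL kanamycin versus none on LB agar overnight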
# STUDY_CONDITIONS: 30 °C
Label Satisfied when self-splicing fitness (ln) >= -3; otherwise Not satisfied.

# MACROMOLECULE_SEQUENCE, ASSIGNED_LABEL
records = [
    ("ACGUAGCAAUAUUACGGAGU", "Not satisfied"),
    ("CCAAAGCAAUAUUACGCGAC", "Not satisfied"),
    ("CCUAAGCAAUAUUACGACAG", "Satisfied"),
    ("CCCGAGCAAUAUUACGCCAA", "Not satisfied"),
    ("UGGCAGCAAUAUUACGAGGU", "Not satisfied"),
    ("UUAGAGCAAUAUUACGUCUC", "Not satisfied"),
    ("AUCUAGCAAUAUUACGUACG", "Satisfied"),
    ("ACAAAGCAAUAUUACGCCUU", "Satisfied"),
    ("AUUUAGCAAUAUUACGCACA", "Satisfied"),
    ("UAGCAGCAAUAUUACGUUGC", "Satisfied"),
    ("ACAGAGCAAUAUUACGUGGU", "Not satisfied"),
    ("ACGUAGCAAUAUUACGGGCG", "Satisfied"),
    ("CCCCAGCAAUAUUACGUAAA", "Not satisfied"),
    ("AUCUAGCAAUAUUACGUAAA", "Satisfied"),
    ("CACAAGCAAUAUUACGGUUC", "Not satisfied"),
    ("GAUUAGCAAUAUUACGGAAA", "Satisfied"),
    ("AAUUAGCAAUAUUACGAUUA", "Satisfied"),
    ("GCGGAGCAAUAUUACGGAUU", "Not satisfied"),
    ("CGAGAGCAAUAUUACGGAUU", "Satisfied"),
    ("CAGGAGCAAUAUUACGUGAA", "Not satisfied"),
    ("CGCUAGCAAUAUUACGGUAC", "Not satisfied"),
    ("GCAUAGCAAUAUUACGAAUC", "Satisfied"),
    ("AAUCAGCAAUAUUACGCCAU", "Satisfied"),
    ("AUUCAGCAAUAUUACGUUAG", "Not satisfied"),
    ("CCUGAGCAAUAUUACGGUUC", "Not satisfied"),
    ("ACGCAGCAAUAUUACGGUUU", "Satisfied"),
    ("ACAGAGCAAUAUUACGCAAU", "Not satisfied"),
    ("UAGGAGCAAUAUUACGCCGA", "Satisfied"),
    ("CUAUAGCAAUAUUACGGAUG", "Satisfied"),
    ("UCGCAGCAAUAUUACGACGC", "Satisfied"),
    ("ACCCAGCAAUAUUACGCUUU", "Satisfied"),
    ("AACAAGCAAUAUUACGCGAA", "Satisfied"),
    ("CUACAGCAAUAUUACGGAAG", "Satisfied"),
    ("UCUUAGCAAUAUUACGGGGC", "Not satisfied"),
    ("CCAAAGCAAUAUUACGUAUC", "Satisfied"),
    ("GUCUAGCAAUAUUACGGGCG", "Satisfied"),
    ("AGCUAGCAAUAUUACGCUUG", "Not satisfied"),
    ("CGGGAGCAAUAUUACGUUUG", "Satisfied"),
    ("GACGAGCAAUAUUACGCAGG", "Satisfied"),
    ("CGUGAGCAAUAUUACGAUCC", "Satisfied"),
    ("UGCAAGCAAUAUUACGCAAC", "Satisfied"),
    ("GGGUAGCAAUAUUACGAUAG", "Satisfied"),
    ("CACGAGCAAUAUUACGCCUG", "Not satisfied"),
    ("CGCGAGCAAUAUUACGUAAA", "Not satisfied"),
    ("GAUGAGCAAUAUUACGUUGG", "Not satisfied"),
    ("AUCAAGCAAUAUUACGUCUG", "Satisfied"),
    ("CGAUAGCAAUAUUACGUAAG", "Satisfied"),
    ("CCCUAGCAAUAUUACGACGG", "Satisfied"),
    ("AGAUAGCAAUAUUACGACGU", "Satisfied"),
    ("GUAUAGCAAUAUUACGUGUC", "Not satisfied"),
    ("AGUAAGCAAUAUUACGGUCG", "Satisfied"),
    ("AGAAAGCAAUAUUACGAUUG", "Not satisfied"),
    ("GCAUAGCAAUAUUACGGGGA", "Not satisfied"),
    ("ACACAGCAAUAUUACGGCAG", "Satisfied"),
    ("CGCAAGCAAUAUUACGAAGG", "Satisfied"),
    ("CCGAAGCAAUAUUACGCGGG", "Not satisfied"),
    ("AUGUAGCAAUAUUACGGGUC", "Not satisfied"),
    ("UAAUAGCAAUAUUACGCAGU", "Not satisfied"),
    ("CCGCAGCAAUAUUACGCGAU", "Not satisfied"),
    ("AGAGAGCAAUAUUACGCCAA", "Satisfied"),
]
